system: SARS-CoV-2 FSE (−1 PRF); experiment: cells; type: cell-based; conditions: Severe acute respiratory syndrome coronavirus 2, HEK-293T, 24 h; read-out: PERCENT EFFECT (Increased GFP/Red Ratio)
Property: activation at 10 µM; scope: individual molecules

# Molecule, Tgt, Units Symbol, activation at 10 µM
rows = [
    ("O=C1OC2(c3ccccc31)c1cc(I)c(O)c(I)c1Oc1c2cc(I)c(O)c1I [ERYTHROSINE SODIUM]", "SARS-CoV-2 FSE (−1 PRF)", "%", -56.3),
    ("CN(C)c1ccc(C(=C2C=CC(=[N+](C)C)C=C2)c2ccc(N(C)C)cc2)cc1", "SARS-CoV-2 FSE (−1 PRF)", "%", -34.5),
    ("C[C@@H]1O[C@@H](O[C@@H]2C=C3CC[C@@H]4[C@H](CC[C@]5(C)[C@@H](c6ccc(=O)oc6)CC[C@]45O)[C@@]3(C)CC2)[C@H](O)[C@H](O)[C@H]1O", "SARS-CoV-2 FSE (−1 PRF)", "%", 16.5),
    ("Cc1cc2nc3c(=O)[nH]c(=O)nc-3n(CC(O)C(O)C(O)CO)c2cc1C (stereo not shown)", "SARS-CoV-2 FSE (−1 PRF)", "%", 19.6),
    ("CCNCC1CCN(c2c(F)cc3c(=O)c(C(=O)O)cn(CC)c3c2F)C1 (stereo not shown)", "SARS-CoV-2 FSE (−1 PRF)", "%", -13),
    ("O=P(O)(O)OC1[C@H](OP(=O)(O)O)[C@H](O)C(O)[C@H](O)[C@H]1OP(=O)(O)O (stereo partly shown)", "SARS-CoV-2 FSE (−1 PRF)", "%", 30.2),
    ("CCOC(=O)OC(C)OC1=C(C(=O)Nc2ccccn2)N(C)S(=O)(=O)c2ccccc21 (stereo not shown)", "SARS-CoV-2 FSE (−1 PRF)", "%", 30.8),
]
